value type: melting point (°C)
State the answer as a number, implicitly in °C.

// known answers, use as guide
Problem: Identify measured melting point corresponding to CCc1nc2cc(C(F)(F)F)c(Cl)cc2n1-c1ccc(C[C@H](C)OC(=O)NS(=O)(=O)c2ccc(C)cc2)cc1
Solution: 200.3

Problem: Identify measured melting point corresponding to CCc1nc2cc(C(F)(F)F)c(Cl)cc2n1-c1ccc(CCN(C(=O)O)S(=O)(=O)c2ccc(C)cn2)cc1.Cl
Solution: 205.8

Problem: Identify measured melting point corresponding to CCc1nc2c(C)nc(C)cc2n1-c1ccc(CCOC(=O)NS(=O)(=O)c2ccc(C)cc2)cc1
Solution: 158

---
Problem: Identify measured melting point corresponding to CCc1nc2c(C)nc(C)nc2n1-c1ccc(CCOC(=O)NS(=O)(=O)c2ccc(C)cc2)cc1
Solution: 162

Data provenance: patent US20020077329A1
